Assignment: determine reported TP for the given compounds.
Species: Rattus norvegicus
Assay: Open TG-GATES - Regimen: Single
Type: toxicity, organism-based, Sprague-Dawley
Design: regimen Single, gender Male, age 6 weeks
Conditions: in vivo, po, 0 mg/kg, 3 h, tissue Plasma, route gavage, dose level Control
One number for each entry, in g/dL.

Solved entries:
>  <Compound>
O=C(O)c1ccccc1Nc1ccccc1 [FENAMIC ACID]

>  <Test Value>
5.4

$$$$
>  <Compound>
COc1ccc([C@@H]2Sc3ccccc3N(CCN(C)C)C(=O)[C@@H]2OC(C)=O)cc1 [DILTIAZEM]

>  <Test Value>
5.1

$$$$
>  <Compound>
Nc1ccc(Cc2ccc(N)cc2)cc1

>  <Test Value>
5.6

$$$$
>  <Compound>
CN(C)CCCN1c2ccccc2Sc2ccc(Cl)cc21 [CHLORPROMAZINE]

>  <Test Value>
5.5

$$$$

# input for lookup
q: What TP value was documented for this compound, C=C[C@H]1C[N@@]2CC[C@H]1C[C@@H]2[C@@H](O)c1ccnc2ccc(OC)cc12 [QUINIDINE] ?
a: 5.4
